Exercise: for every item that follows, state its recorded cytotoxicity at 10 µM.
Experiment: Toxicity liver stage against HepG2, at 10uM
Format: cell-based
Parameters: test concentration 10 uM, cell line HepG2-A16-CD81EGFP
Details: human, HepG2-A16-CD81EGFP cells; read-out: INHIBITION
Give bare numbers, in %.

O=S(=O)(CCSc1nccn1C1CC1)c1ccccc1 ... -4.63
Cc1ccc(C(=O)N2CCCC(CNS(C)(=O)=O)C2)o1 (configuration not stated) ... -16
CN(C)c1cncc(C2CCN(CC(N)=O)CC2)n1 ... 3.07

Report cytotoxicity at 10 µM for each item below.
1. NC(=O)c1cccc(OCC(=O)N2CCCC(n3cccn3)C2)c1 (configuration not stated)
2. COC(=O)c1cccc(C2CNCCN2C)c1 (configuration not stated)
3. O=C(C1CCOCC1)N1CCc2onc(COc3cccnc3)c2C1
4. CCc1ncnc2c1CCN(S(=O)(=O)c1ccccc1)CC2

Response line:
1. -13.5
2. 0.5
3. -69.6
4. -96.8

* * *

So I've got a bunch of compounds here, and I need their cytotoxicity at 10 µM values.
Assay: Toxicity liver stage against HepG2, at 10uM
Assay type: cell-based
Set-up: test concentration 10 uM, cell line HepG2-A16-CD81EGFP
Conditions: human, HepG2-A16-CD81EGFP cells; read-out: INHIBITION
Give bare numbers, in %.

Take a look at these entries with their results.
CCS(=O)(=O)NCCNC(=O)c1cnc(-c2ccccc2)nc1 ... 13.8
Cc1cccn2cc(CC(=O)N(CCN(C)C)CC3CCCO3)nc12 (stereo unspecified) ... 0.462
CN(C)c1ncnc2c1CCN(C(=O)c1sccc1S(N)(=O)=O)C2 ... 0.192

Each compound below has a reported value. Please supply its cytotoxicity at 10 µM.
1. CN1CC(=O)N(c2cnn(C)c2)CC12CCN(C(=O)c1ccsc1)C2 (stereo unspecified)
2. Cc1cc(C)n(-c2ccc3nnc(C)n3n2)n1
3. Cc1csc2nc3n(c(=O)c12)CCN(Cc1ccccn1)CC3

Response line:
[-1.37, 17.8, -18.2]

Please report cytotoxicity at 10 µM for every entry that follows.
1. O=C(c1nccc2ccccc12)N(Cc1ccco1)CC1CCCO1 (stereo unspecified)
2. Cn1ncc2c1NC(=O)CC2c1cc(Cl)ccc1F (stereo unspecified)
3. CC(C)n1ccnc1C1CCN(Cc2ccc(Cl)c(F)c2)CC1
4. CN(CC(=O)Nc1cc(C(F)(F)F)c[nH]c1=O)Cc1ccccc1
5. CCc1nc(C2CCCN2C(=O)c2ccc(N3CCCC3)nn2)no1 (stereo unspecified)

Response line:
1. -6.25
2. 78.6
3. -3.59
4. 12
5. -3.27

* * *

Experiment: Toxicity liver stage against HepG2, at 10uM
Type: cell-based
Parameters: test concentration 10 uM, cell line HepG2-A16-CD81EGFP
Settings: human, HepG2-A16-CD81EGFP cells; read-out: INHIBITION
MEASUREMENT_KIND: cytotoxicity at 10 µM (%)
Give bare numbers, in %.

Recorded cytotoxicity at 10 µM, per entry:
CN(C)CC(c1ccccc1)N(C)C(=O)c1cccc(NCC(=O)O)c1 (stereo not drawn) ... 3.7
CC(C)CC(NC(=O)OC(C)(C)C)C(N)=O (stereo not drawn) ... 3.29
COc1c(C(=O)NCc2cccnc2)nnn1Cc1ccc(C)cc1 ... 11.8
CCOc1ncccc1C(=O)NCCN(CC)C1CC1 ... 4.4
O=C(C1CCOCC1)N(CCc1ccccc1)C1CCOC1 (stereo not drawn) ... 4.77
FC(F)(F)Cc1noc(CN2CCCC2c2noc(C3CC3)n2)n1 (stereo not drawn) ... -2.7
O=C(O)c1ccc(CC2CCN(Cc3ccc(-c4cc[nH]n4)o3)C2)cc1 (stereo not drawn) ... 6.37
COCC(C)N(C)C(=O)CCc1c(C)nc2c(C#N)cnn2c1C (stereo not drawn) ... -43.3
O=C(COc1ccc(Cl)cc1Cl)N1CCCSCC1CN1CCOCC1 (stereo not drawn) ... 4.09
Cc1ccn(-c2ccccc2NCc2cscn2)n1 ... 13.2

Would you mind listing cytotoxicity at 10 µM for each of the following compounds?
1. O=C(c1cccc2c1OCCO2)N1CCCC(n2ccnc2)C1 (stereo not drawn)
2. O=C(CCc1ncc(-c2ccc(F)cc2)o1)NCCN1CCOCC1
3. CC(C)N(CCNC(=O)c1n[nH]c2ccccc12)C(C)C

Response line:
1: -6.92; 2: 10.6; 3: -42.8

// each listed compound needs a value for cytotoxicity at 10 µM
1. Cn1cccc1C(=O)N[C@@H]1CN(Cc2ccsc2)[C@@H]2COC[C@@H]21
2. Cc1cc(Cl)c(C)c(S(=O)(=O)N2CCN(Cc3ccncc3)CC2)c1Cl
3. CCCN1CCN(Cc2cccc(OCC(N)=O)c2)[C@H]2CS(=O)(=O)C[C@H]21
4. CC1CN(C(=O)c2cccc(OCc3cscn3)c2)CCO1 (stereo not drawn)

Response line:
[9.9, 1.76, 2.77, -9.86]

* * *

Experiment: Toxicity liver stage against HepG2, at 10uM
Assay type: cell-based
Design: test concentration 10 uM, cell line HepG2-A16-CD81EGFP
Details: human, HepG2-A16-CD81EGFP cells; read-out: INHIBITION
MEASUREMENT_KIND: cytotoxicity at 10 µM (%)
Answers are plain numbers, in %.

O=S(=O)(C1CC1)N1CCc2ncc(Cn3cccn3)n2CC1 ... 9.58

List reported cytotoxicity at 10 µM for each of these molecules:
1. CCn1cc(Br)c(C(=O)NCc2ccccc2)n1
2. Cc1ccc(-c2nnc(CNCCn3cccn3)o2)cc1

Response line:
1: 7.61; 2: -26.1

* * *

Assay: Toxicity liver stage against HepG2, at 10uM
Format: cell-based
Set-up: test concentration 10 uM, cell line HepG2-A16-CD81EGFP
Settings: human, HepG2-A16-CD81EGFP cells; read-out: INHIBITION
MEASUREMENT_KIND: cytotoxicity at 10 µM (%)
Give bare numbers, in %.

CC(c1nc(C(C)(C)C)no1)S(=O)(=O)CC(=O)N(C)C (stereo unspecified) ... -0.0515
Cc1csc(N2CCCN(C(=O)c3ccsc3)CC2)n1 ... 5.28
COCC1Cn2nnc(-c3cnn(C)c3)c2CN1Cc1ccc(C)s1 (stereo unspecified) ... -10.5
Cc1n[nH]c(C)c1C1COCCN1C(=O)c1ccc2c(c1)CCO2 (stereo unspecified) ... -4.01
Cn1cc(S(=O)(=O)NCc2ccc(F)cc2)cn1 ... 1.25

Each compound below has a recorded value; state its cytotoxicity at 10 µM.
1. Cc1occc1C(=O)NCC(=O)N1CCCC(c2ccccc2)CC1 (stereo unspecified)
2. CCN(CC)CCn1cc(NC(=O)CNc2ccccc2OC)cn1
3. CC(C)(NCc1ccc(C#N)cc1)c1ccc2c(c1)OCO2
4. Cc1noc(C)c1CN1CCn2cc(CNc3ccccn3)nc2C1

Response line:
1. 6.35
2. 6.19
3. 2.3
4. -1.38

For every record below, what is its cytotoxicity at 10 µM?
1. CCC(CC)C(=O)c1c[nH]c(C(=O)N2CCN(c3ccccc3)CC2)c1
2. NC(=O)CC1CCCN(C(=O)NCC2(c3cccs3)CCCC2)C1 (stereo unspecified)
3. COc1cccc(-c2n[nH]cc2CNC2CCCN(C)C2)c1 (stereo unspecified)
4. Cc1ccc(Cl)cc1N1CCC(CNC(=O)CCn2ccnn2)C1 (stereo unspecified)

Response line:
1: 14.7; 2: 1.9; 3: -8.86; 4: -5.72

For every item below, please supply its cytotoxicity at 10 µM.
1. Cc1csc(C(=O)N2CCC(S(C)(=O)=O)CC2)c1
2. O=C1O[C@@H]2CN(Cc3cc4ccccc4o3)C[C@@H]2N1Cc1ccccn1
3. CC(C)(C)c1cc(NC(=O)C2COCCO2)n(-c2ccccn2)n1 (stereo unspecified)

Response line:
2.7
5.16
-3.49

* * *

For each record, write down the corresponding cytotoxicity at 10 µM.
Assay: Toxicity liver stage against HepG2, at 10uM
Type: cell-based
Design: test concentration 10 uM, cell line HepG2-A16-CD81EGFP
Details: human, HepG2-A16-CD81EGFP cells; read-out: INHIBITION
One number for each entry, in %.

Recorded results for 3 compounds are shown here.
c1cc2c(cc1Cn1cc(C3CCOC3)nn1)CCCO2 (stereo not drawn) ... 2.03
Cc1noc([C@@]23CCO[C@@H]2CCN(C(=O)CCC(C)C)C3)n1 ... 10.3
CCc1nccn1C1CCCN(C(=O)Cc2cn3ccsc3n2)C1 (stereo not drawn) ... -23

I would be grateful if you could provide cytotoxicity at 10 µM for each of the following entries.
1. Cc1ccc(C(=O)N2C[C@H]3CCC[C@@]3(COCc3ccncc3)C2)cn1
2. CCC1CN(C(=O)c2ccccc2N2CCOCC2)CCN1C(C)C (stereo not drawn)
3. O=C1CCNC(=O)N1CC(=O)N1CCC1c1ccc(F)cc1 (stereo not drawn)
4. COc1ncc(-c2ccc(C(N)=O)cc2)c(OC)n1
5. O=C1NCCCC12CCN(Cc1ccc(-c3ccccc3)s1)C2 (stereo not drawn)
6. Cn1cc(C(=O)Nc2cccc(Oc3ccncc3)c2)ccc1=O

Response line:
6.64
7.72
7.46
-5.9
16.9
-1.21

Required: cytotoxicity at 10 µM, one value per compound below.
1. CN(CCc1ccccc1)C1CCCN(Cc2nccn2C)C1 (stereo not drawn)
2. CCc1nc(C)c(C(=O)N2CCNCC2C(=O)NCc2ccncc2)o1 (stereo not drawn)
3. Cc1cnc(CN2CCN(c3ccc4nncn4n3)C(C)C2)cn1 (stereo not drawn)

Response line:
1: -18.5; 2: -3.64; 3: -2.21

Provide cytotoxicity at 10 µM for all items below, preserving their order.
1. Cc1cnccc1NC(=O)CCc1ccsc1
2. N#CCCCS(=O)(=O)N1CCCC1CC(=O)c1cccs1 (stereo not drawn)
3. CCc1cc(NCc2cc(CC(C)C)on2)n2nccc2n1
4. c1cncc(CN2CCCn3nnc(COCC4CC4)c3C2)c1
5. N#CC1(C(=O)N2C[C@@H]3CC[C@H]2CN(Cc2cscn2)C3)CCOCC1
6. COc1ccc(-c2nccn2C[C@@H]2CCCN3CCCC[C@H]23)cc1
7. Cc1cnc(CN(C)C2CCN(CCCc3cnn(C)c3)C2)o1 (stereo not drawn)

Response line:
[-3.51, -5.07, 3.59, -110, 2.39, 4.71, 2.61]
